Hello, the source for this data is ChEMBL document CHEMBL3988442, in case you need it.

tested on: Wolbachia pipientis; assay: Anti-Wolbachia Cell-Based Screen; assay type: functional; set-up: scale not given: in the data most compounds retested in dose-response had high values; settings: 5 µM
The campaign covered roughly 48,000 compounds. About 13,000 (27%) showed an effect of 50% or more. The list shows a part of the results.
Listed compounds paired with reported Percent Effect

COMPOUND | EXPERIMENTAL_SYSTEM | Percent Effect [%]
C[S+]([O-])c1cccc(NC(=O)N(CCC#N)Cc2ccccn2)c1 (configuration not stated) | Wolbachia pipientis | -5.424
CCN(CCCNC(=O)c1cc2cccc(F)c2o1)S(C)(=O)=O | Wolbachia pipientis | 13.88
CCOC1CC2(CCN(Cc3nccn3C)CC2)C1.O=C(O)C(F)(F)F | Wolbachia pipientis | 2.92
COCC1CC2(CCN(C(=O)c3ccco3)CC2)CN1C(C)C.O=C(O)C(F)(F)F (configuration not stated) | Wolbachia pipientis | 111.9
Cn1cncc1CN1CCC2(CC1)COCCN(S(C)(=O)=O)C2.O=C(O)C(F)(F)F | Wolbachia pipientis | 124.1
Cn1ccnc1CN1CCC2(CC1)COCCN(S(C)(=O)=O)C2.O=C(O)C(F)(F)F | Wolbachia pipientis | 104.9
Cn1ccnc1CN1CCC2(CC1)COC2.O=C(O)C(F)(F)F | Wolbachia pipientis | 97.83
COc1ccncc1NC(=O)C1(c2ccccc2)CC1 | Wolbachia pipientis | -4.467
CCN1CCCC(CNC(=O)CCc2ccc(OC)c(F)c2)C1 (configuration not stated) | Wolbachia pipientis | -5.052
CS(=O)(=O)N1CCOCC2(CN(Cc3nccs3)CCO2)C1.O=C(O)C(F)(F)F (configuration not stated) | Wolbachia pipientis | 6.136
COCCN1CCC(CNC(=O)C2(C#N)CCCC2)CC1 | Wolbachia pipientis | -6.048
Cc1cc(CN(C)C(=O)c2ccc(F)cc2F)no1 | Wolbachia pipientis | 11.87
CSCC[C@@H](CO)Nc1ccc(-c2nc(-c3ccccc3F)no2)cn1 | Wolbachia pipientis | -8.084
Cc1csc(CN2C[C@@H]3COC[C@]3(C(=O)NCc3ccco3)C2)n1 | Wolbachia pipientis | -36.74
COCC1CC2(CCN(Cc3ccc(C)o3)CC2)CN1C(C)C.O=C(O)C(F)(F)F.O=C(O)C(F)(F)F (configuration not stated) | Wolbachia pipientis | 100.3
CCN1CCCC(CNC(=O)C2(c3cc(C)cc(C)c3)CCC2)C1 (configuration not stated) | Wolbachia pipientis | 97.54
CC(C)OCCS(=O)(=O)c1nccn1-c1cccc(F)c1 | Wolbachia pipientis | -15.74
COCC1CC2(CCN(C(=O)c3occc3C)CC2)CN1C(C)C.O=C(O)C(F)(F)F (configuration not stated) | Wolbachia pipientis | 98.04
CN(CC(N)=O)S(=O)(=O)c1ccc(F)cc1F | Wolbachia pipientis | -1.274
Cn1ccnc1CN1CCC2(COCCN(Cc3ccsc3)C2)C1 (configuration not stated) | Wolbachia pipientis | 14.38
COC1CC2(CCN(Cc3nccn3C)CC2)C1.O=C(O)C(F)(F)F | Wolbachia pipientis | 5.077
Cc1nccn1C1(C(=O)O)CCN(Cc2ccc3occc3c2)CC1 | Wolbachia pipientis | -3.386

* * *

system: Wolbachia pipientis; experiment: Anti-Wolbachia Cell-Based Screen; assay type: functional; set-up: scale not given: in the data most compounds retested in dose-response had high values; settings: 5 µM
Hit rate of the full screen: of about 48,000 compounds, about 13,000 (27%) showed an effect of 50% or more. Some of the results follow.
Listed molecules paired with reported Percent Effect

MOLECULE | EXPERIMENTAL_SYSTEM | Percent Effect (%)
Cc1nn(C)c(Cl)c1C1CCCN1C(=O)c1ccc2nncn2c1 (stereo unspecified) | Wolbachia pipientis | -0.8221
O=C(c1ccccc1)C1CCN(c2cncc(-n3cccn3)n2)CC1 | Wolbachia pipientis | 6.831
Cc1ccccc1CN(C)C(=O)CN1CCCC(Cn2cncn2)C1 (stereo unspecified) | Wolbachia pipientis | 113.1
Cc1ccc(CNC(=O)CN2CCCC(Cn3cncn3)C2)s1 (stereo unspecified) | Wolbachia pipientis | 2.763
CN(Cc1cnn(C)c1)C(=O)CN1CCCC(Cn2cncn2)C1 (stereo unspecified) | Wolbachia pipientis | 99.58
CN(Cc1cccs1)C(=O)CN1CCCC1Cn1cncn1 (stereo unspecified) | Wolbachia pipientis | 4.485
